# Study system: NUDT15 (Homo sapiens)
# Sequence (Q9NV35 whole entry): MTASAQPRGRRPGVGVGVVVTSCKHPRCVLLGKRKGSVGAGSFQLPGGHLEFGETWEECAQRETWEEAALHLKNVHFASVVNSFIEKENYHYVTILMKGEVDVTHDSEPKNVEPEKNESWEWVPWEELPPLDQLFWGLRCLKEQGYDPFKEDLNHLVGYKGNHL
pKi: −log10 of the molar value.
Attribute measured: pKi

>>> measured_value("C[C@@H]1CN(C(=O)c2ccc3c(ccn3C)c2)CCN1S(=O)(=O)c1ccc2[nH]c(=O)oc2c1")
7.99
